Origin of values: paper PMC3804772

property_name: melting point (°C)

compound="COc1ccc(CN2CCc3cc4c(c(OC)c3[C@@H]2[C@H]2OC(=O)c3c2ccc(OC)c3OC)OCO4)cc1 [Compound 6d]" property_name="melting point" data_value=66

A = COC(=O)CN1CCc2cc3c(c(OC)c2[C@@H]1[C@H]1OC(=O)c2c1ccc(OC)c2OC)OCO3 [Compound 6i]
B = COc1ccc2c(c1OC)C(=O)O[C@@H]2[C@H]1c2c(cc3c(c2OC)OCO3)CCN1Cc1ccc(Br)cc1 [Compound 6b]
Hey, which is lower on measured melting point, A or B ? Give the label of your selection. B

---

property_name: melting point (°C)

Use the examples below as a reference point.
compound="COc1cccc(CN2CCc3cc4c(c(OC)c3[C@@H]2[C@H]2OC(=O)c3c2ccc(OC)c3OC)OCO4)c1 [Compound 6g]" data_value=60
compound="COc1ccc2c(c1OC)C(=O)O[C@@H]2[C@H]1c2c(cc3c(c2OC)OCO3)CCN1Cc1cccc(Cl)c1 [Compound 6e]" data_value=62
compound="COc1ccc2c(c1OC)C(=O)O[C@@H]2[C@H]1c2c(cc3c(c2OC)OCO3)CCN1Cc1ccc([N+](=O)[O-])cc1 [Compound 6c]" data_value=154
compound="COc1ccc2c(c1OC)C(=O)O[C@@H]2[C@H]1c2c(cc3c(c2OC)OCO3)CCN1Cc1ccccc1 [Compound 6a]" data_value=64
compound="CCOC(=O)CN1CCc2cc3c(c(OC)c2[C@@H]1[C@H]1OC(=O)c2c1ccc(OC)c2OC)OCO3 [Compound 6j]" data_value=92

I = COc1ccc2c(c1OC)C(=O)O[C@@H]2[C@H]1c2c(cc3c(c2OC)OCO3)CCN1Cc1cccc(Br)c1 [Compound 6f]
II = COc1ccc2c(c1OC)C(=O)O[C@@H]2[C@H]1c2c(cc3c(c2OC)OCO3)CCN1CC(C)=O [Compound 6h]
Hey, which is lower on measured melting point, I or II ? Give the label of your selection. I
